System: HEK-293T
Experiment: Incucyte cell viability with HEK293T; further: filed as whole numbers so only -1 and 0 and 1 occur
Assay type: toxicity, cell-based
Details: human, 0 h, 10 µM, compound concentration 10 uM, replicate number 1, timepoint 0 hours
outcomeMeasure: Growth Rate
No unit in the answer, please; the number alone is enough.

## Task What measured Growth Rate is associated with Cc1cc(NC(=O)c2cccc(S(F)(F)(F)(F)F)c2)cc(-n2ccn3nc(-c4cccnc4)cc23)c1 on HEK-293T?
## Result 1

## Task Similarly, CC1=C(C(=O)Nc2cc3cn[nH]c3cc2F)C(c2ccc(C(F)(F)F)cc2)CC(=O)N1 (stereo unspecified) ?
## Result 0

## Task Would you mind doing O[C@H]1CC[C@H](Nc2ncc3nc(Nc4c(F)cc(F)cc4F)n([C@H]4CCOC4)c3n2)CC1 as well?
## Result 0

## Task Try the compound C#Cc1cccc(Nc2ncnc3cc(OCCOC)c(OCCOC)cc23)c1
## Result 0

## Task Lookup CCCOc1ccc([C@H]2[C@H](C(=O)O)[C@@H](c3ccc4c(c3)OCO4)CN2CC(=O)Nc2c(CC)cccc2CC)cc1
## Result 0

## Task What do you have for CC(C)(O)c1ccccc1CC[C@@H](SCC1(CC(=O)[O-])CC1)c1cccc(/C=C/c2ccc3ccc(Cl)cc3n2)c1.[Na+] [MONTELUKAST SODIUM] ?
## Result 0

## Task Another compound: COc1cc2ncn(-c3cc(OCc4ccccc4C(F)(F)F)c(C(N)=O)s3)c2cc1OC [GW843682X]
## Result 0

## Task Next record, please: O=C(O)Cn1c(C(=O)Nc2nc(-c3ccccc3Cl)cs2)cc2ccccc21
## Result 0

## Task And for CNC(=O)Nc1ccc2c(c1)[C@@]1(CC2)OC(=O)N(CC(=O)N(Cc2ccc(F)cc2)[C@@H](C)C(F)(F)F)C1=O ?
## Result 1

## Task Similarly, CCOc1cn(-c2ccc(F)cc2C)nc1C(=O)Nc1ccc(Oc2ccnc3cc(OC)c(OC)cc23)c(F)c1 ?
## Result 0

## Task Note, next up: C[C@H](NC(=O)c1cnc2n1[C@](C)(Cc1ccc(C#N)cc1)C(=O)N2c1cc(Cl)c(F)c(Cl)c1)C(=O)NC1(c2ccccn2)CC1
## Result 1

## Task Same read-out for Cc1noc([C@H]2C[C@@H](c3ccc(C(F)(F)F)cc3)CN(C(=O)N3CCS(=O)(=O)C3)C2)n1 ?
## Result 1

## Task And for Cc1cc(C(C)(C)C)c(O)c(C)c1CC1=NCCN1.Cl [OXYMETAZOLINE HYDROCHLORIDE] ?
## Result 0

## Task Moving on to O=C(NCC(=O)N1CCCC1)Nc1ccc2cnccc2c1
## Result 0

## Task Please give the result for COCCOc1nc(-c2ccc(Cl)nc2)nc2c1CN(C(=O)c1ncn3ccccc13)CC2 too.
## Result 0

## Task Would you kindly repeat that for O=C(O)C1CN(Cc2ccc(-c3nc4cc(Cc5ccccc5F)ccc4s3)c(F)c2)C1 ?
## Result 1

====

Test system: HEK-293T
Assay: Multiplex assay against HEK293T
Assay type: toxicity, cell-based
Details: human, 24 h, 10 µM, compound concentration 10 uM, replicate 2
# thresholds on Population Mitochondria Different-Phenotype (%) define classes: bucket 1 (below 20%), bucket 2 (20% to below 40%), bucket 3 (40% or more)

## Task Quick check: band for C[C@]12CC[C@@H]3c4ccc(O)cc4CC[C@H]3[C@@H]1CC[C@@H]2O
## Result bucket 1

## Task Note, next up: CN1CCN(Cc2ccc(Nc3ncc(Cl)c(Nc4ccccc4S(=O)(=O)N(C)C)n3)cc2)CC1
## Result bucket 2

## Task How about this compound: CC(C)c1noc(N2CCC(COc3ccc(-c4ccc(S(C)(=O)=O)cc4)nc3)CC2)n1
## Result bucket 2

## Task Also check Cc1ccc2c(c1)c1c(n2CCc2ccc(C)nc2)CCN(C)C1 [LATREPIRDINE]
## Result bucket 3

## Task Next record, please: CC(C)(C)NC[C@H](O)COc1nsnc1N1CCOCC1
## Result bucket 1

## Task Likewise for CCc1ccc(OCc2ccccc2C(=O)Nc2ccc3nc(C)cc(N)c3c2)cc1.Cl ?
## Result bucket 1

## Task How about CC1=C(C(=O)Nc2cc3cn[nH]c3cc2F)C(c2ccc(C(F)(F)F)cc2)CC(=O)N1 (centres undefined) ?
## Result bucket 2

## Task Field entry: C=CC(=O)Nc1cccc(Sc2nc(Nc3ccc(N4CCN(C)CC4)cc3)ncc2Cl)c1
## Result bucket 1

## Task Can you check Cl.O=C(O)c1cc(-c2ccc(C3CCNCC3)cc2)c2ccc(-c3ccc(C(F)(F)F)cc3)cc2c1 next?
## Result bucket 3

## Task Then what about the compound Cc1c[nH]c2nccc(Oc3c(F)cc(Nc4cc(Cl)nc(N)n4)cc3F)c12 ?
## Result bucket 2

## Task Now give it for CNC(=O)Nc1ccc(-c2nc(N3CC4CCC(C3)O4)c3cnn(C4CCC5(CC4)OCCO5)c3n2)cc1 too.
## Result bucket 3

## Task Again, but for COc1cc2ncn(-c3cc(OCc4ccccc4C(F)(F)F)c(C(N)=O)s3)c2cc1OC [GW843682X]
## Result bucket 3

## Task Would you mind doing C=CC(=O)Nc1cccc(Oc2nc(Nc3ccc(N4CCN(C)CC4)cc3OC)ncc2Cl)c1 as well?
## Result bucket 1
